organism: Rattus norvegicus; assay: DrugMatrix - Regimen: Daily Repeat; type: toxicity, organism-based, Sprague-Dawley; design: regimen Daily Repeat, gender Male, age 6-8 weeks; settings: in vivo, po, 0 mg/kg, 120 h, tissue Blood, route oral GAVAGE, dose level Control, time 5 day, vehicle 100 % SALINE
Please go through the items and note down their PLATELET COUNT.
Express the result in x10E3/uL but write the number alone.

Prompt line: Fill blank: measured PLATELET COUNT of the compound `Oc1ccccc1O` is ____.
Response line: 1041.83

Prompt line: Try this compound next: `CC(=O)OCC(CCn1cnc2cnc(N)nc21)COC(C)=O`
Response line: 1001.17

Prompt line: Try this compound next: Cc1cc(CC(=O)O)n(C)c1C(=O)c1ccc(Cl)cc1 [ZOMEPIRAC]
Response line: 1041.83

Prompt line: Try this compound next: `CCCc1nn(C)c2c(=O)[nH]c(-c3cc(S(=O)(=O)N4CCN(C)CC4)ccc3OCC)nc12`
Response line: 1001.17

* * *

organism: Rattus norvegicus; assay: DrugMatrix - Regimen: Daily Repeat; format: toxicity, organism-based, Sprague-Dawley; parameters: regimen Daily Repeat, gender Male, age 6-8 weeks; details: in vivo, po, 0 mg/kg, 72 h, tissue Plasma, route oral GAVAGE, dose level Control, time 3 day, vehicle .5 % CMC
EXPERIMENTAL ENDPOINT: TOTAL PROTEIN (G/DL)
Express the result in G/DL but write the number alone.

Prompt line: Fill blank: measured TOTAL PROTEIN of the compound COc1ccccc1OCC(O)COC(N)=O (centres undefined) [METHOCARBAMOL] is ____.
Response line: 5.9

Prompt line: Try this compound next: CC(C(=O)O)c1ccc(-c2ccccc2)c(F)c1 (centres undefined) [FLURBIPROFEN]
Response line: 5.98

Prompt line: Try this compound next: `CC[C@]1(O)CC[C@H]2[C@@H]3CCC4=CCCC[C@@H]4[C@H]3CC[C@@]21C`
Response line: 5.93

Prompt line: Try this compound next: Cc1cnc(C(=O)NCCc2ccc(S(=O)(=O)NC(=O)NC3CCCCC3)cc2)cn1 [GLIPIZIDE]
Response line: 5.75

Prompt line: Try this compound next: `COc1ccc(/C=C/C(=O)Nc2ccccc2C(=O)O)cc1OC`
Response line: 5.98

Prompt line: Try this compound next: O=c1cc(-c2ccccc2)oc2ccc3ccccc3c12 [BETA-NAPHTHOFLAVONE]
Response line: 6.18

Prompt line: Try this compound next: CCCCC1C(=O)N(c2ccccc2)N(c2ccccc2)C1=O [PHENYLBUTAZONE]
Response line: 5.93

Prompt line: Try this compound next: CC(C)(Sc1cc(C(C)(C)C)c(O)c(C(C)(C)C)c1)Sc1cc(C(C)(C)C)c(O)c(C(C)(C)C)c1 [PROBUCOL]
Response line: 5.98

Prompt line: Try this compound next: C[C@]12C/C(=C/O)C(=O)C[C@@H]1CC[C@@H]1[C@@H]2CC[C@@]2(C)[C@H]1CC[C@]2(C)O [OXYMETHOLONE]
Response line: 6.8

* * *

organism: Rattus norvegicus; assay: DrugMatrix - Regimen: Daily Repeat; assay type: toxicity, organism-based, Sprague-Dawley; parameters: regimen Daily Repeat, gender Male, age 6-8 weeks; settings: in vivo, po, 0 mg/kg, 120 h, tissue Blood, route oral GAVAGE, dose level Control, time 5 day, vehicle 100 % WATER
EXPERIMENTAL ENDPOINT: LYMPHOCYTE (%)
Express the result in % but write the number alone.

Prompt line: Fill blank: measured LYMPHOCYTE of the compound `O=C(O)c1cccnc1` is ____.
Response line: 90.67

Prompt line: Try this compound next: CN1C2CCCC1CC(NC(=O)c1nn(C)c3ccccc13)C2 (stereo not given)
Response line: 92.17

Prompt line: Try this compound next: `Nc1ccc(S(=O)(=O)Nc2nccs2)cc1`
Response line: 92.17

Prompt line: Try this compound next: `CCCc1nn(C)c2c(=O)[nH]c(-c3cc(S(=O)(=O)N4CCN(C)CC4)ccc3OCC)nc12`
Response line: 92.67

Prompt line: Try this compound next: `OCCO`
Response line: 92.67
